Below, each of the binders is paired with its reported Kd value.
# system-name: T1, mouse programmed cell death protein 1 Fc fusion protein (mPD-1-Fc), mPD-1 C60S (aa 25-167) (Mus musculus, UniProt Q02242, stabilised)
# T1 construct: not cleaved; source: Expi293F, purified (Protein A, SEC; dimeric fraction); not shown: Fc (human), C-terminal, kept
# assay-protocol: SPR; Carterra LSA; Fab from the ammonium sulfate precipitate of the culture supernatant immobilised on a NiHC200M chip; hPD-1 (1-1024 nM) or mPD-1-Fc (4-1024 nM) as analyte, fourfold dilution series, no regeneration; HBS-EP pH 7.4, 25 °C; medians over the spots of a construct, KD = koff/kon
# measurement-context: one partner purified
Your answer is read as nM, so omit the unit and give the number.

binder: toripalimab Fab H.F112Y (Fab, V domains shown, heavy chain of Sm3 with this change; numbers count from the chain's first residue; as the light chain of Sm3; source: Brevibacillus, culture supernatant (ammonium sulfate precipitate); not shown: 6xHis, C-terminal, kept; 6xHN, C-terminal, kept) VH: QGQLVQSGAEVKKPGASVKVSCKASGYTFTDYEMHWVRQAPIHGLEWIGVIESETGGTAYNQKFKGRVTITADKSTSTAYMELSSLRSEDTAVYYCAREGITTVATTYYWYYDVWGQGTTVTVSS VL: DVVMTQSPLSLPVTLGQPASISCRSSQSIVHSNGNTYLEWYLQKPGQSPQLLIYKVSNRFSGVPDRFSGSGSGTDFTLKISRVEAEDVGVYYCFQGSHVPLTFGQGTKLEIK
unit-symbol: nM
Kd: 59.7

Lab note: next binder to report on.
Field request: Kd | item: toripalimab Fab L.P100S (Fab, V domains shown, as the heavy chain of Sm3; light chain of Sm3 with this change; numbers count from the chain's first residue; source: Brevibacillus, culture supernatant (ammonium sulfate precipitate); not shown: 6xHis, C-terminal, kept; 6xHN, C-terminal, kept) VH: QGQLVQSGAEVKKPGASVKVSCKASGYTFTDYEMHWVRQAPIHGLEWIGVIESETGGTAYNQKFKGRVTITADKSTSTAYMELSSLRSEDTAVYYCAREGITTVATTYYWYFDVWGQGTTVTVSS VL: DVVMTQSPLSLPVTLGQPASISCRSSQSIVHSNGNTYLEWYLQKPGQSPQLLIYKVSNRFSGVPDRFSGSGSGTDFTLKISRVEAEDVGVYYCFQGSHVSLTFGQGTKLEIK
45.9
